# Experimental System: PDE7A (Homo sapiens)
# Sequence (Q13946 whole entry): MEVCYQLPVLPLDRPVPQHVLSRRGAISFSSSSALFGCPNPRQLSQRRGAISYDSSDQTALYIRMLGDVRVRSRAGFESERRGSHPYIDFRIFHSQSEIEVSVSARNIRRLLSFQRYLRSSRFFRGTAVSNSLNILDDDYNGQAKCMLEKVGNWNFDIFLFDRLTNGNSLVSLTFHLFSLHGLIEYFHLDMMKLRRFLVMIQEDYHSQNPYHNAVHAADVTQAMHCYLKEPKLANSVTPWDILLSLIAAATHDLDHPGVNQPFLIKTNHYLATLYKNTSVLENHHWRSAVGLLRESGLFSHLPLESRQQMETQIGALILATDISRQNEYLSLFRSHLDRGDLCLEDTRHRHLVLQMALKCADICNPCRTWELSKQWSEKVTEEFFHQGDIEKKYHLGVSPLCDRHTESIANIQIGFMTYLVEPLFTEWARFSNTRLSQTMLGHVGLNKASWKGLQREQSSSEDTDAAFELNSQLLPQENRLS
# Procedure Summary: PDE7 enzymatic assay, IC50 determination (PDE7A)
# Measurement Context: human recombinant enzyme, 0.1 μM FAM-cAMP, 30 min 25° C.
Catalogue of compounds with associated pIC50
Would you please state pIC50, meaning minus log10 of the concentration in mol/L, as a bare number?

>  <Compound>
O=C1Nc2c(Cl)ccc(Oc3ccccc3-c3nnn[nH]3)c2C2(CCCCC2)N1 [Formula No. 35A]

>  <pIC50>
9.52

$$$$

We next turn to a different compound, shown below.
O=C1Nc2c(Cl)ccc(O[C@H]3C[C@H](C(=O)O)C3)c2C2(CCCCC2)N1 [Formula No. 44A] yielded pIC50 of 7.59

###

# Experimental System: PDE7A (Homo sapiens)
# Procedure Summary: PDE7 enzymatic assay, IC50 determination (PDE7A)
# Measurement Context: human recombinant enzyme, 0.1 μM FAM-cAMP, 30 min 25° C.
Catalogue of compounds with associated IC50
Report the figure in µM without appending any unit label.

Worked cases, answers included:
>  <Compound>
COc1ccc(Cn2c(=O)c3cc(OC(CF)CF)c(F)cc3n(C3CCN(C=O)CC3)c2=O)cc1OC [Formula No. 55E]

>  <Reported Result>
0.0142

$$$$
>  <Compound>
OCCN(CCO)c1nc(N2CCCCC2)c2nc(N(CCO)CCO)nc(N3CCCCC3)c2n1 [Dipyridamole, reference compound]

>  <Reported Result>
42

$$$$
>  <Compound>
CC(C)Cn1c(=O)n(C)c(=O)c2[nH]cnc21 [IBMX, 3-isobutyl-1-methylxanthine, reference compound]

>  <Reported Result>
10

$$$$

We next turn to a different compound, shown below.
CNC(=O)c1ccc(NC(=O)c2cc3c(C)nn(C4CCCCC4)c3s2)cn1 yielded IC50 of 0.0111
